Entry source: the supplement of paper PMC13380429

Below, each entry is listed with its recorded cell viability.
Test system: Vero E6
Assay: cell viability relative to DMSO; higher = less toxic
Details: 72 h; 100 nM
Quick note: give the figure in %, leave out the unit.

Example entries begin here.
O=C(/C=C/c1ccc(O)c(O)c1)O[C@H](Cc1ccc(O)c(O)c1)C(=O)O [rosmarinic-acid]
99.1
CN(C)C(=O)Nc1cccc(-c2ccc(N(C)C)cc2)c1 [atglistatin]
98.3
CCN(CC)C(=O)Nc1ccc(OCC(O)CNC(C)(C)C)c(C(C)=O)c1 (configuration not stated) [celiprolol]
102

Pending compound:
Prompt: Please report the measured cell viability for Fc1cc(-c2cccc3ncc(-c4cnn(C5CCNCC5)c4)nc23)cc(F)c1CN1CCOCC1 [NVP-BSK805]
Completion: 100
